# TESTED SYSTEM: coagulation factor IXa (FIXa) (Homo sapiens) (UniProt P00740+P00740)
# PROCEDURE SUMMARY: competition
# ASSAY SETUP: 2'-F pyrimidines, 2'-OH purines; 3-nt 2'-OMe 3' tail; comparable to 9.3t
pKd: −log10 of the molar value.
MEASURE: pKd

[[record]]
sequence_entry = "AUGGGGACUAUACCGCGUAAUGCUGCCUCCCCAUN [9.3t-3NT]"
experimental_result = "> 8.82"


---

# TESTED SYSTEM: activated protein C (APC) (UniProt P04070+P04070)
# ASSAY SETUP: 2'-F pyrimidines, 2'-OH purines; <10% RNA bound at up to 5 uM protein; >5000-fold specificity
MEASURE: Kd

[[record]]
sequence_entry = "AUGGGGACUAUACCGCGUAAUGCUGCCUCCCCAUN [9.3t]"
measure = "Kd"
experimental_result = "> 5 µM"


---

# TESTED SYSTEM: coagulation factor IXa (FIXa) (Homo sapiens) (UniProt P00740+P00740)
# ASSAY SETUP: 2'-F pyrimidines, 2'-OH purines; physiologic salt and pH, 37 C
MEASURE: Kd

[[record]]
sequence_entry = "AUGGGGACUAUACCGCGUAAUGCUGCCUCCCCAUN [9.3t]"
measure = "Kd"
experimental_result = "0.6 nM"


---

# TESTED SYSTEM: coagulation factor VIIa (FVIIa) (UniProt P08709+P08709)
# ASSAY SETUP: 2'-F pyrimidines, 2'-OH purines; <10% RNA bound at up to 5 uM protein; >5000-fold specificity
MEASURE: Kd

[[record]]
sequence_entry = "AUGGGGACUAUACCGCGUAAUGCUGCCUCCCCAUN [9.3t]"
experimental_result = "> 5 µM"


---

# TESTED SYSTEM: coagulation factor XIa (FXIa) (UniProt P03951+P03951)
# ASSAY SETUP: 2'-F pyrimidines, 2'-OH purines; <10% RNA bound at up to 5 uM protein; >5000-fold specificity
MEASURE: Kd

[[record]]
sequence_entry = "AUGGGGACUAUACCGCGUAAUGCUGCCUCCCCAUN [9.3t]"
experimental_result = "> 5 µM"


This collection of values is drawn from patent US20030083294.
